kinase still bound, per cent of control listing for selected molecules.
molecular target: MARK2 (human) (UniProt Q7KZI7); assay: KINOMEscan competition binding; conditions: compound 10.0 µM
Sequence (Q7KZI7 whole entry, looked up): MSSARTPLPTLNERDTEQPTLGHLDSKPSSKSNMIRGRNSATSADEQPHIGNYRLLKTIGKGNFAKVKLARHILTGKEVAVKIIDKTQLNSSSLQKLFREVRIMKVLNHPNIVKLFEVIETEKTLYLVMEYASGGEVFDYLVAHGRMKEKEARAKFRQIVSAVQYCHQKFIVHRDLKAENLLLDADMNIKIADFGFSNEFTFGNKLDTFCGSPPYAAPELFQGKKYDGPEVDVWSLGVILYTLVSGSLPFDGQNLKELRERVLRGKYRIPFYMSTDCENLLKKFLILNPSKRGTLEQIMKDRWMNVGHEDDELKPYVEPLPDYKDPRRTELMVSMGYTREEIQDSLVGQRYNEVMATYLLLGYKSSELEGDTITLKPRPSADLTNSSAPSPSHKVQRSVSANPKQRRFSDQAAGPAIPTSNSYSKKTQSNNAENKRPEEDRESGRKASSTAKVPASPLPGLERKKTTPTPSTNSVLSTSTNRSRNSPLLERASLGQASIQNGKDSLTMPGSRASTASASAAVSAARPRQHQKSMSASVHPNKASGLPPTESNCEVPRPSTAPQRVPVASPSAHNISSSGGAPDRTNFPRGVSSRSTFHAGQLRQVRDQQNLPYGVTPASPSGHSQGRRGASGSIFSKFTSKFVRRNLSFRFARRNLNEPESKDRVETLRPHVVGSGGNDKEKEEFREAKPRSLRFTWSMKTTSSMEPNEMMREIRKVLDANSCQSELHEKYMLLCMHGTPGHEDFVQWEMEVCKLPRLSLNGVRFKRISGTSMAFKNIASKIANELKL

# Molecule, kinase still bound, per cent of control [%]
records = [
    ("CCc1nc(-c2cccc(C)c2)c(-c2ccnc(NC(=O)c3ccccc3)c2)s1", 100),
    ("COc1cc2c(Nc3ccc(NC(=O)c4ccccc4)cc3)ncnc2cc1OCCCN1CCOCC1", 81),
    ("N#Cc1cc(-c2ccnc(Nc3ccc(-n4cnc(-c5cccnc5)n4)cc3)n2)cc(N2CCOCC2)c1", 73),
    ("COc1ccc(N(C(=O)Oc2cc(C(=O)Nc3cccc(C(F)(F)F)c3)ccc2C)c2ccnc(Nc3ccc(N4CCN(C)CC4)cc3)n2)c(OC)c1", 100),
    ("CCCS(=O)(=O)Nc1ccc(F)c(C(=O)c2c[nH]c3ncc(Cl)cc23)c1F", 92),
    ("O=c1[nH]c2ccccc2n1C1CCN(Cc2ccc(-c3nc4cc5[nH]cnc5cc4nc3-c3ccccc3)cc2)CC1", 83),
    ("N#C/C(=C1/Nc2ccccc2S1)c1ccnc(NCCc2cccnc2)n1", 75),
    ("CNC(=O)Nc1ccc(-c2nc(N3CC4CCC(C3)O4)c3cnn(C4CCC5(CC4)OCCO5)c3n2)cc1", 100),
    ("CCOc1cc(N2CCC(O)CC2)ccc1Nc1ncc2c(n1)N(C)c1ccccc1C(=O)N2C", 100),
    ("CCN(CCO)CCCOc1ccc2c(Nc3cc(CC(=O)Nc4cccc(F)c4)[nH]n3)ncnc2c1", 80),
    ("CC1=C(C(=O)Nc2cc3cn[nH]c3cc2F)C(c2ccc(C(F)(F)F)cc2)CC(=O)N1 (stereo not drawn)", 99),
    ("COc1cc(N2CCC(C(N)=O)CC2)ccc1Nc1nc(N)c(Cl)c(Nc2ccccc2S(=O)(=O)C(C)C)n1", 100),
    ("CCN1CCN(Cc2ccc(NC(=O)c3ccc(C)c(/C=C/c4cnc5[nH]ccc5c4OC)c3)cc2C(F)(F)F)CC1", 68),
    ("C=CC(=O)Nc1ccc(C(=O)c2sc(Nc3ccc(N4CCN(C)CC4)cc3OC)nc2N)cc1", 78),
    ("Cc1cn(-c2cc(C(=O)Nc3ccc(C)c(NC(=O)c4ccno4)c3)cc(C(F)(F)F)c2)cn1", 100),
    ("CC(=O)c1c(C)c2cnc(Nc3ccc(N4CCNCC4)cn3)nc2n(C2CCCC2)c1=O", 28),
    ("COc1cc2ncnc(Nc3cccc(Cl)c3)c2cc1OC", 74),
    ("COc1cc(C)c(Sc2cnc(NC(=O)c3ccc(CNC(C)C(C)C)cc3)s2)cc1C(=O)N1CCN(C(C)=O)CC1 (stereo not drawn)", 100),
]
